# test summary: Antagonist activity at P2Y12 receptor in human blood platelets assessed as inhibition of ADP-induced platelet aggregation compound preincubated with blood for 5 mins prior to ADP addition by electrode aggregometry assay
pIC50: −log10 of the molar value.
Below is a list of entries, each paired with its recorded pIC50 value.
recorded endpoint: pIC50

O=C(CCC(=O)Nc1ccc2[nH]c3ccccc3c(=O)c2c1)Nc1ccc2[nH]c3ccccc3c(=O)c2c1	5.19
O=C(CCCCCCCC(=O)Nc1ccc2[nH]c3ccccc3c(=O)c2c1)Nc1ccc2[nH]c3ccccc3c(=O)c2c1	4.46
CCOC(=O)c1cc(NC(=O)c2cc(NC(=O)c3cc(NC(=O)c4c(-c5ccccc5)noc4C)cn3C)cn2C)cn1C	5.38
